System: Escherichia coli TOP10
assay info: shrunken log2 fold change of peptide-encoding DNA abundance (4.5 h post-induction vs induction); higher = less antimicrobial activity (less host growth inhibition)
conditions: time post-induction: 4.5 h; library: site-saturation at positions 5, 18, 19, 20
shrunken log2 fold change by entry:

- primary sequence: "RRIRKRPPRLPRPRPRPFYKPRP"
  target desc: "Escherichia coli TOP10"
  shrunken log2 fold change: -0.456
- primary sequence: "RRIRGRPPRLPRPRPRPMFPPRP"
  target desc: "Escherichia coli TOP10"
  shrunken log2 fold change: 0.193
- primary sequence: "RRIRTRPPRLPRPRPRPHWFPRP"
  target desc: "Escherichia coli TOP10"
  shrunken log2 fold change: -0.132
- primary sequence: "RRIRKRPPRLPRPRPRPQVMPRP"
  target desc: "Escherichia coli TOP10"
  shrunken log2 fold change: -0.162
- primary sequence: "RRIRPRPPRLPRPRPRPHGQPRP"
  target desc: "Escherichia coli TOP10"
  shrunken log2 fold change: 0.186

* * *

Tested on: Escherichia coli TOP10;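 also: peptides expressed intracellularly from a pBAD plasmid library in pooled LB shake-flask culture, induced with 0.3% L-arabinose, DNA abundance read by NGS, three biological replicates, DESeq2 with apeglm shrinkage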
assay info: shrunken log2 fold change of peptide-encoding DNA abundance (4.5 h post-induction vs induction); higher = less antimicrobial activity (less host growth inhibition)
conditions: time post-induction: 4.5 h; library: site-saturation at positions 5, 18, 19, 20
As shown below, each of these sequences has a reported shrunken log2 fold change value.

- primary sequence: "RRIRWRPPRLPRPRPRPKPRPRP"
  shrunken log2 fold change: 0.236
- primary sequence: "RRIRKRPPRLPRPRPRPPAYPRP"
  shrunken log2 fold change: 0.417
- primary sequence: "RRIRVRPPRLPRPRPRPQRGPRP"
  shrunken log2 fold change: 0.198
- primary sequence: "RRIRDRPPRLPRPRPRPIKFPRP"
  shrunken log2 fold change: -0.236
- primary sequence: "RRIRWRPPRLPRPRPRPRRNPRP"
  shrunken log2 fold change: 0.0585
- primary sequence: "RRIRCRPPRLPRPRPRPNYMPRP"
  shrunken log2 fold change: -0.677
- primary sequence: "RRIRWRPPRLPRPRPRPMDMPRP"
  shrunken log2 fold change: -0.0589
- primary sequence: "RRIRHRPPRLPRPRPRPNEKPRP"
  shrunken log2 fold change: -0.0239
- primary sequence: "RRIRSRPPRLPRPRPRPWLPPRP"
  shrunken log2 fold change: 0.0131
- primary sequence: "RRIRMRPPRLPRPRPRPAKNPRP"
  shrunken log2 fold change: 0.816
- primary sequence: "RRIRKRPPRLPRPRPRPRKYPRP"
  shrunken log2 fold change: -0.211
- primary sequence: "RRIRQRPPRLPRPRPRPCYDPRP"
  shrunken log2 fold change: -0.357
- primary sequence: "RRIRGRPPRLPRPRPRPEMQPRP"
  shrunken log2 fold change: 1.41
- primary sequence: "RRIRNRPPRLPRPRPRPARVPRP"
  shrunken log2 fold change: 0.574
- primary sequence: "RRIRHRPPRLPRPRPRPHEHPRP"
  shrunken log2 fold change: 0.103
- primary sequence: "RRIRIRPPRLPRPRPRPHNQPRP"
  shrunken log2 fold change: -0.528
- primary sequence: "RRIRIRPPRLPRPRPRPKRLPRP"
  shrunken log2 fold change: 0.181
- primary sequence: "RRIRTRPPRLPRPRPRPWSTPRP"
  shrunken log2 fold change: -0.14
- primary sequence: "RRIRFRPPRLPRPRPRPQPGPRP"
  shrunken log2 fold change: 0.152
- primary sequence: "RRIRNRPPRLPRPRPRPLFEPRP"
  shrunken log2 fold change: 0.205
- primary sequence: "RRIRVRPPRLPRPRPRPMEMPRP"
  shrunken log2 fold change: -0.0249
- primary sequence: "RRIRGRPPRLPRPRPRPKNQPRP"
  shrunken log2 fold change: 0.551
- primary sequence: "RRIRQRPPRLPRPRPRPYMKPRP"
  shrunken log2 fold change: -0.521
- primary sequence: "RRIRWRPPRLPRPRPRPHQDPRP"
  shrunken log2 fold change: 0.134
- primary sequence: "RRIRCRPPRLPRPRPRPSTTPRP"
  shrunken log2 fold change: -0.257
- primary sequence: "RRIRLRPPRLPRPRPRPNMIPRP"
  shrunken log2 fold change: -0.571
- primary sequence: "RRIRPRPPRLPRPRPRPKWMPRP"
  shrunken log2 fold change: -0.158
- primary sequence: "RRIRNRPPRLPRPRPRPAGHPRP"
  shrunken log2 fold change: 0.133
- primary sequence: "RRIRWRPPRLPRPRPRPPRYPRP"
  shrunken log2 fold change: 0.374
- primary sequence: "RRIRCRPPRLPRPRPRPRTCPRP"
  shrunken log2 fold change: 0.0191
- primary sequence: "RRIRCRPPRLPRPRPRPTISPRP"
  shrunken log2 fold change: -0.381
- primary sequence: "RRIRTRPPRLPRPRPRPNLYPRP"
  shrunken log2 fold change: -0.255
- primary sequence: "RRIRWRPPRLPRPRPRPDENPRP"
  shrunken log2 fold change: 0.644
